- SUBJECT OF TEST: UniProt:O60674
- Sequence (O60674 whole entry): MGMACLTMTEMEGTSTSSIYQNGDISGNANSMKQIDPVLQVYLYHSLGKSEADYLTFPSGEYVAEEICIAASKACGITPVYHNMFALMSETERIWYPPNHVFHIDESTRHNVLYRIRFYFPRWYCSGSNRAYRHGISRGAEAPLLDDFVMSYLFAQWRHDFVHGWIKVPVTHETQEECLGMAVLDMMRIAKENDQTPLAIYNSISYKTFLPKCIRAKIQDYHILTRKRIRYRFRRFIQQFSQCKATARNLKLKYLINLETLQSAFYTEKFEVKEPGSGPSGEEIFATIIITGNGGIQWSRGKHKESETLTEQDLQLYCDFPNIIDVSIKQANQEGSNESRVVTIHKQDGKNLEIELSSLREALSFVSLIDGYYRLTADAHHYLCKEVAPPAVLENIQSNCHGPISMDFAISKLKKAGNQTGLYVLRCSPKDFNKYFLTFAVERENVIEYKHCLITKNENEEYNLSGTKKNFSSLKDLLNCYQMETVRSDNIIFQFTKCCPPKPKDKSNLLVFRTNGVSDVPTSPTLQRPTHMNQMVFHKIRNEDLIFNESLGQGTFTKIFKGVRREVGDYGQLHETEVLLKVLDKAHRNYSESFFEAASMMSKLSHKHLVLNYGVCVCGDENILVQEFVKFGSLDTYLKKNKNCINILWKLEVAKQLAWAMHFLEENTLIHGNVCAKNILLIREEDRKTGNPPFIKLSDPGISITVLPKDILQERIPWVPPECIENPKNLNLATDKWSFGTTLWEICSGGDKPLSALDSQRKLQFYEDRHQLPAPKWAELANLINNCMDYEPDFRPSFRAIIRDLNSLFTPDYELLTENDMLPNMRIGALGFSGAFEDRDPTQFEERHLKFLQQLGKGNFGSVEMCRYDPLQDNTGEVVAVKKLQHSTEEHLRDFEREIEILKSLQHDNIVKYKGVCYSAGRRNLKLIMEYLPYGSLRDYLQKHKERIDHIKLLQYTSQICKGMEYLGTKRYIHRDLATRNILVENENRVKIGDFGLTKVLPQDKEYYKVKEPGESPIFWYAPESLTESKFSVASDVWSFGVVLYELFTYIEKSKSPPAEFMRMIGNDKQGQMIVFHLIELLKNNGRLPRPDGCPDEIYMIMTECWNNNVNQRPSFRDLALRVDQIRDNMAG
- ASSAY: Jak2 Tyrosine Kinase Assay
- Format: biochemical
- CONDITIONS USED: selectivity of Btk over Jak2
ASSAY READOUT: Ratio of Jak2/Btk IC50 values

| COMPOUND | ASSAY READOUT | RECORDED MEASUREMENT |
| --- | --- | --- |
| Cc1c(-c2c(Cl)cc(C(N)=O)c3[nH]c4cc(C(C)(C)O)ccc4c23)cccc1-n1c(=O)[nH]c2c(F)cc(F)cc2c1=O (racemic) | Ratio of Jak2/Btk IC50 values | >2400 |

Record request: Ratio of Jak2/Btk IC50 values value, item Cc1c(-c2c(Cl)cc(C(N)=O)c3[nH]c4cc(C(C)(C)O)ccc4c23)cccc1-n1c(=O)ccn(-c2ccc(F)cc2)c1=O [Example 23] 1000

Another compound: Cc1c(-c2c(Cl)cc(C(N)=O)c3[nH]c4cc(C(C)(C)O)ccc4c23)cccc1-n1c(=O)c2cc(F)ccc2n(C)c1=O >3100

The reported numbers originate from patent US9850258B2.
